Test: qHTS Assay for Lipid Storage Modulators in Drosophila S3 Cells; also: potency is read from the fitted curve at half-maximal effect
Conditions: BODIPY lipid droplet fluorescence, 18-24 h, cells fed with added oleic acid; series mostly up to 46.1 µM
The campaign covered roughly 320,000 compounds. About 2,100 (0.66%) were called active. About 53% were inconclusive and are not listed. Many of the other results were omitted from the sample, so actives are more common in it than they were.
measurement kind: Potency

Below, each entry is followed by its recorded Potency result.
1) CCN(C(=O)COC(=O)/C=C/c1ccc(OC(F)F)c(OC)c1)C1CCS(=O)(=O)C1 (stereo not given)	inactive
2) Cc1ccc(N(CC(O)CN2CCCC2)S(=O)(=O)c2ccc(C)cc2)cc1 (stereo not given)	inactive
3) CC(C)(C)c1ccc(C(=O)CCC(=O)NCc2ccccc2)cc1	14.6 µM (active)
4) CC(=O)Nc1ccc(SCC(=O)c2c(N)n(Cc3ccccc3)c(=O)n(C)c2=O)cc1	inactive

Turning now to a further compound:
Prompt line: In one line, give reported Potency of the entry COc1cc(/C=C/C(=O)OCC(=O)N(C)C2CCS(=O)(=O)C2)ccc1OC(F)F (stereo not given) .
Response line: inactive

* * *

Assay: qHTS Assay for Lipid Storage Modulators in Drosophila S3 Cells
Settings: BODIPY lipid droplet fluorescence, 18-24 h, cells fed with added oleic acid; series mostly up to 46.1 µM
Out of some 320,000 compounds screened, about 2,100 (0.66%) were called active. Not shown: some 53% with an inconclusive outcome. The call rests on the fitted dose curve; in most records, active means well fitted inhibition curve with a large enough effect in the signal ratio, with a control signal flat (not every such curve was filed as active); inconclusive means small, poorly fitted or top-dose-only effect, or effect the other way, or a change in a side signal; inactive means flat fitted curve, though single readings scatter; the % refers to the signal ratio. The sample holds actives, similar compounds and a random draw of the others, so the mix is not that of the screen.
// one of active, inactive, no free text

Prompt line: Called result for "Cc1ccc2c(CC(=O)OCc3cc(=O)n4c(n3)sc3ccccc34)coc2c1"
Response line: inactive

Prompt line: Called result for C=CCN1C(=O)C(CC(=O)NCC)SC1=Nc1ccccc1OC (stereo not given)
Response line: inactive

Prompt line: Called result for "COc1ccc(C)cc1NS(=O)(=O)c1ccc2c(c1)N(C)CCO2"
Response line: active

Prompt line: Called result for "C#CCOc1ccc(C2C3=C(CC(C)(C)CC3=O)N(CC(=O)O)C3=C2C(=O)CC(C)(C)C3)cc1OC"
Response line: active

Prompt line: Called result for "CCc1ccc(/C=N\n2cnnc2)cc1"
Response line: inactive

* * *

In this section, each of the compounds is paired with its reported cell number change.
Experiment: qHTS Assay for Lipid Storage Modulators in Drosophila S3 Cells;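 as to cell number change: cells counted by Cell Tracker Red CMTPX staining in the red channel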
Conditions: BODIPY lipid droplet fluorescence, 18-24 h, cells fed with added oleic acid; measured here: cell count max response
Out of some 320,000 compounds screened, about 2,100 (0.66%) were called active. Inconclusive results (about 53%) are left out. Many of the other results were omitted from the sample, so actives are more common in it than they were.
The reply must contain the numeric value and, after it, the unit.

1) CC(C)Oc1ccc(N2CC(C(=O)Nc3ccc(N4CCOCC4)cc3)CC2=O)cc1 (centres undefined)	15.2%
2) O=c1cc(-c2ccc3c(c2)OCCO3)oc2ccc(Cl)cc12	12.3%
3) O=c1oc(-c2cccs2)nc2scc(-c3cccs3)c12	-10.7%

Prompt line: In one line, give reported cell number change of the entry CCNC(=S)N1CCc2cc(OC)c(OC)cc2C1COc1ccc(OC)cc1 (centres undefined) .
Response line: -7.02%
